Target: Vascular endothelial growth factor receptor 2 (Homo sapiens) (UniProt P35968);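 note: each value is the mean percent inhibition of KDR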
Sequence (P35968 whole entry): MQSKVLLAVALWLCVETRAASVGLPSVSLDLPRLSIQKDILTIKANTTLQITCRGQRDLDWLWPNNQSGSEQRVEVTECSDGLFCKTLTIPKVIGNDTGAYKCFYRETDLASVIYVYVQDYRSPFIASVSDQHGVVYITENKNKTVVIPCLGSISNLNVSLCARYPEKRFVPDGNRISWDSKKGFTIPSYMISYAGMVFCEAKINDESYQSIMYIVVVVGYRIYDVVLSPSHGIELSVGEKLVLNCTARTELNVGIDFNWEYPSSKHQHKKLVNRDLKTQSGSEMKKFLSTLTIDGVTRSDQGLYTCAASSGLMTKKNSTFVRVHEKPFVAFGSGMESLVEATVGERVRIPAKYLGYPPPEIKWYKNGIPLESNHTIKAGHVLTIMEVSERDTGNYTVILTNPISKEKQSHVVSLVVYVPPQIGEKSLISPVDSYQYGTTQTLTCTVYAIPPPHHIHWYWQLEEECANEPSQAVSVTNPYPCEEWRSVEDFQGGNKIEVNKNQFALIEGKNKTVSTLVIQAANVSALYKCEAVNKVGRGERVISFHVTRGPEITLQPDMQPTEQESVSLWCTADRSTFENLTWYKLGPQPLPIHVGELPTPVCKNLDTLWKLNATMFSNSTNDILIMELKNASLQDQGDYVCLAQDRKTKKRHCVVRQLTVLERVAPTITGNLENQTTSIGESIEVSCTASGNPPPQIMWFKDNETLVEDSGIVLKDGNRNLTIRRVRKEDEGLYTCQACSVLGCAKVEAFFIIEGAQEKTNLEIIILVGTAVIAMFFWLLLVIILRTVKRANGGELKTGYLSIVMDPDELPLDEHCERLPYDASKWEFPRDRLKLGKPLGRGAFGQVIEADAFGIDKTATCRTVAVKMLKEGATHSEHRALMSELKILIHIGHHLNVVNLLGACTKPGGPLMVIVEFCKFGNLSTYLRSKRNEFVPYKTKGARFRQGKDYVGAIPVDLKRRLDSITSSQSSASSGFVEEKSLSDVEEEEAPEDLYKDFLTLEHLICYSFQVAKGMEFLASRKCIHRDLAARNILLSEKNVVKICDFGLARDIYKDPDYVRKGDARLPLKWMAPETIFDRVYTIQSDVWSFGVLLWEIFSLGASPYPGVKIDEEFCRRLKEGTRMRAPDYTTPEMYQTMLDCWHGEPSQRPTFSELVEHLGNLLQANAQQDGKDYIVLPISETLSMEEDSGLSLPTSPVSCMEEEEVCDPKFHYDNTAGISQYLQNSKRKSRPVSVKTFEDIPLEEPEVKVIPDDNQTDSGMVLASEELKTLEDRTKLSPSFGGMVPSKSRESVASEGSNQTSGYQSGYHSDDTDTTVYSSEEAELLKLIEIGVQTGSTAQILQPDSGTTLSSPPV
Details: at 1 µM
assay readout: inhibition (%)
Reply with just the number (in %).

Sample records with inhibition:
COc1cc(Nc2ncc(-c3ccccc3)o2)cc(OC)c1; 19.3
NS(=O)(=O)c1ccc(N/N=C2\C(=O)Nc3cccc(CCc4ccncc4)c32)cc1; 46.7
CCS(=O)(=O)c1ccc(OC)c(Nc2ncc(-c3cccc(F)c3)o2)c1; 77
Fc1ccc(Nc2nccc(-c3c(-c4ccc(C(F)(F)F)cc4)nn4ncccc34)n2)cc1F; 7.03
O=C(O[C@H]1CN[C@H](C#Cc2cc3ncnc(Nc4ccc5c(ccn5Cc5cc(F)ccc5F)c4)c3s2)C1)N1CCOCC1; 10.6

Quick check: inhibition of "COc1cccc(Nc2nccc(-c3cnn4ncccc34)n2)c1" ?
42.1

Now this one: "CNC(=O)c1ncccc1Nc1nc(Nc2cc3c(cc2OC)CCCN3C(=O)CN(C)C)nc2[nH]ccc12"
5.02

Another molecule to look at: "c1cnn2ncc(-c3ccnc(NCCCN4CCOCC4)n3)c2c1"
6.83

Ok, now "COC(=O)Nc1nc2cc(Oc3ccc(NC(=O)Nc4ccccc4)cc3)ccc2[nH]1"
7.27

Input "Fc1cccc(COc2ccc(Nc3ncncc3C#Cc3ccccc3)cc2Cl)c1"
6.38

====

As shown below, each of these compounds has a reported inhibition value.
Target: Ribosomal protein S6 kinase alpha-3 (Homo sapiens) (UniProt P51812)
Sequence (P51812 whole entry): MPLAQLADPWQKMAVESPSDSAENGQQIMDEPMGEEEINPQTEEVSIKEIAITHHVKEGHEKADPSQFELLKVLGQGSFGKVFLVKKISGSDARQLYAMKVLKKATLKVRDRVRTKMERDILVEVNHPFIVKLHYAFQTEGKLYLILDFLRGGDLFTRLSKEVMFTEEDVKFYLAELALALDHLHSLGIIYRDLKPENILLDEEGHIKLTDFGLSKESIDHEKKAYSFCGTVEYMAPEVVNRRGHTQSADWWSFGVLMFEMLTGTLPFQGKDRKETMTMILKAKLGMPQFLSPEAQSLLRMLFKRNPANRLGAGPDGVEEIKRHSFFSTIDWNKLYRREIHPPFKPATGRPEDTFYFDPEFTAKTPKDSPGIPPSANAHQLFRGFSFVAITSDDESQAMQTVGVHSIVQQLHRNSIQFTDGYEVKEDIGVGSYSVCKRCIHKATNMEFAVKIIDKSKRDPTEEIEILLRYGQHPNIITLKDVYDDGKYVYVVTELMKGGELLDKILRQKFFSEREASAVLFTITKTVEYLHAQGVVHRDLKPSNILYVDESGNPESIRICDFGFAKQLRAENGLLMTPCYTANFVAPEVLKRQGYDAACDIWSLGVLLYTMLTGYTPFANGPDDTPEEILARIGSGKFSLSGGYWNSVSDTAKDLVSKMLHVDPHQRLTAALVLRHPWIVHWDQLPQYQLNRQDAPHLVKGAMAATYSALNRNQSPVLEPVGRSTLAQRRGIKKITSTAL
Conditions: at 1 µM
Description: GSK_PKIS: RSK2 mean inhibition at 1 uM [Nanosyn]
Output spec: scalar in %, unitless text.

Past entries and their recorded results:
OCCCNc1nccc(-c2c(-c3ccc(F)cc3)nn3cc(C(F)(F)F)ccc23)n1; 1.08
CN(C)CCNC(=O)Nc1ccc(N(C)c2ccnc(Nc3ccc(CS(C)(=O)=O)cc3)n2)cc1; 2.03
CS(=O)(=O)Nc1ccc(-c2cc(-c3ccccc3)cc(C(N)=O)c2N)cc1; 0.45
CC1(C)CC(n2cnc(-c3ccc(F)cc3)c2-c2ccnc(N)n2)CC(C)(C)N1; 2.77
CS(=O)(=O)CCNCc1ccc(-c2ccc3ncnc(Nc4ccc(OCc5cccc(C(F)(F)F)c5)cc4)c3c2)o1; 3.53
CCS(=O)(=O)c1ccc(OC)c(Nc2ncc(-c3cccc(C(C)=O)c3)o2)c1; 3.54
COc1cccc(Nc2nccc(-c3cnn4ncccc34)n2)c1; 2.48
COc1cccc(-n2ncc3c(N/N=C/c4ccc(C(=O)NCCN(C)C)cc4)ncnc32)c1; 5.65

Now turn to the next compound.
I have this compound here, "Fc1cccc(COc2ccc(Nc3ncncc3C#Cc3ccccc3)cc2Cl)c1" , and I need its recorded inhibition.
4.01

====

Target: Phosphorylase b kinase gamma catalytic chain, skeletal muscle/heart isoform (Homo sapiens);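 note: each value is a mean percent inhibition of PHKG1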
Settings: at 1 µM
Attribute: inhibition

O=C(O[C@H]1CN[C@H](C#Cc2cc3ncnc(Nc4ccc5c(ccn5Cc5cc(F)ccc5F)c4)c3s2)C1)N1CCOCC1; 4.72%
Cc1ccc(-c2cc3c(NC(=O)C4CC4)ncnc3o2)cc1; 9.89%
COc1ccc(-c2nn3ncccc3c2-c2ccnc(Nc3ccc(F)c(F)c3)n2)cc1; 10.2%
CNC(=O)c1ncccc1Nc1nc(Nc2cc3c(cc2OC)CCCN3C(=O)CN(C)C)nc2[nH]ccc12; 26.6%

Could you tell me which inhibition is on file for "CCn1c(-c2nonc2N)nc2cncc(C(=O)NCCNC)c21" ?
7.35%

And the next one, "COc1cc(N2CCN(C(C)C)CC2)ccc1Nc1nc(Nc2cccc3ncccc23)c2cc[nH]c2n1" ?
28.6%

Same read-out for "CS(=O)(=O)Nc1ccc(-c2ccc3c(NC(=O)C4CC4)n[nH]c3c2)cc1" ?
5.46%

Another compound: "CN(c1ccc(NC(=O)NCCN2CCOCC2)cc1)c1ccnc(Nc2ccc(CS(C)(=O)=O)cc2)n1"
5.5%

Now the compound "COc1cc(Nc2ncc(-c3ccccc3)o2)cc(OC)c1"
14.1%

====

Tested on: Platelet-derived growth factor receptor alpha (Homo sapiens), P16234 [V561D]
Sequence (P16234 whole entry V561D): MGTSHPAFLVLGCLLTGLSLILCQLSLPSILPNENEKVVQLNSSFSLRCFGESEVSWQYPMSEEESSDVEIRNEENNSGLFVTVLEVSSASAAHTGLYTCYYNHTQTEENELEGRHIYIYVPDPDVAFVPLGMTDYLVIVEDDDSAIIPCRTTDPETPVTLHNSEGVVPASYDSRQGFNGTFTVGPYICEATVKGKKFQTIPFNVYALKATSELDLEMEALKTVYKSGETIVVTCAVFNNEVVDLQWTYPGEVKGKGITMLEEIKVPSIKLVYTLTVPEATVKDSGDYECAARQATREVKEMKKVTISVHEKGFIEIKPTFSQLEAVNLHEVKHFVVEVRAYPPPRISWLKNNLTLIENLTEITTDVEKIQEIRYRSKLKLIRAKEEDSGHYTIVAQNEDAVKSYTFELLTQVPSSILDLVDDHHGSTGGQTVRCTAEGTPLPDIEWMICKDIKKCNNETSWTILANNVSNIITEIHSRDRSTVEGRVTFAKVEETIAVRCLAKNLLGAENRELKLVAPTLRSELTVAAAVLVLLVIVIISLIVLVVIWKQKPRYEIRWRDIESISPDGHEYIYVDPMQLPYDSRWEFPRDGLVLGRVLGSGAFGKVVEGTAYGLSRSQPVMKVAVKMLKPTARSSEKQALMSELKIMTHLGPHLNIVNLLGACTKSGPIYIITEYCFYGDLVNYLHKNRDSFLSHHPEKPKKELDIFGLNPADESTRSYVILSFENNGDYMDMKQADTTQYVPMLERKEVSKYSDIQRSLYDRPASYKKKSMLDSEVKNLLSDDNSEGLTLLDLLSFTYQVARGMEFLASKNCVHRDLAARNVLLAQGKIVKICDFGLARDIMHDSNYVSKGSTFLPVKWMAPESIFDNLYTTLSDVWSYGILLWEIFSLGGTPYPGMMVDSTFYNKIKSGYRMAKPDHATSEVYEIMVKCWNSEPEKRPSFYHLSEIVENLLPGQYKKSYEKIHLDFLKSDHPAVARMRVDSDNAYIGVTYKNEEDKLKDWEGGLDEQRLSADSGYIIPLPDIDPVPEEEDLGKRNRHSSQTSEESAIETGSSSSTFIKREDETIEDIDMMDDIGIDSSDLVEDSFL
Conditions: at 1 µM
assay readout: inhibition (%)
Please give a number only; it is taken to be in %.

CC(C)c1ccc(-c2cc(-c3c[nH]nc3-c3ccccn3)ccn2)cc1; 20.6

The record that follows has no inhibition shown yet.
Fill in: inhibition of CC1=C(C(=O)Nc2ccc3[nH]nc(C)c3c2)C(c2ccc(C(F)(F)F)cc2)CC(=O)N1 (stereo not drawn) is ___
8.12

====

Target: 5'-AMP-activated protein kinase catalytic subunit alpha-1 (Homo sapiens);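 note: mean percent inhibition of the AMPK A1B1G1 complex (alpha1 beta1 gamma1) in the GSK PKIS kinase inhibitor screen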
Details: at 1 µM
assay readout: inhibition (%)
Give the value, in units of %, as a plain number.

Cn1c(-c2nonc2N)nc2cnccc21; 3.2
CC1(C)CC(n2cnc(-c3ccc(F)cc3)c2-c2ccnc(N)n2)CC(C)(C)N1; 1.1
Fc1ccc(Nc2nccc(-c3c(-c4ccc(C(F)(F)F)cc4)nn4ncccc34)n2)cc1F; 0.39
O=C1Nc2ccccc2/C1=C1\CCc2cc(O)ccc21; 13.4
CC(C)c1ccc(-c2cc(-c3c[nH]nc3-c3ccccn3)ccn2)cc1; -1.2

Request the reported inhibition associated with "NS(=O)(=O)c1ccc(N/N=C2\C(=O)Nc3ccc(C(=O)NCc4ccncc4)cc32)cc1"
75.5

Cool, now "O=C(Nc1n[nH]c2nnc(-c3cccnc3)cc12)C1CC1"
0.39

Also check "CS(=O)(=O)CCNCc1ccc(-c2ccc3ncnc(Nc4ccc(OCc5cccc(C(F)(F)F)c5)cc4)c3c2)o1"
5.76

Check "c1ccc(-c2n[nH]cc2-c2ccnc(-c3ccc(OCCn4ccnc4)cc3)c2)nc1" too.
3.29

Same for "Cc1cc(O)cc(C)c1/C=C/c1cncc(C(N)=O)c1"
1.85

====

Target: MAP kinase-activated protein kinase 3 (Homo sapiens) (UniProt Q16644)
Sequence (Q16644 whole entry, looked up): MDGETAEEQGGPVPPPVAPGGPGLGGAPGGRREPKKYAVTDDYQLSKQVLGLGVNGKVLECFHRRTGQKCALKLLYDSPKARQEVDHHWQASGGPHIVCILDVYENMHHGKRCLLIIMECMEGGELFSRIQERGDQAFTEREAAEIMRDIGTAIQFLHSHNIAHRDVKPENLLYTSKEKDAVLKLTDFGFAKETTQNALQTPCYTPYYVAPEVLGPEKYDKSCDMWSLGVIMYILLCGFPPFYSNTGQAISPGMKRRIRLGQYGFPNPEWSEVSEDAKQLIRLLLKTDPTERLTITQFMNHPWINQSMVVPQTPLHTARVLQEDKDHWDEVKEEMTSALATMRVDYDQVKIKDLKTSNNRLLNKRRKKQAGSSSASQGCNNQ
Conditions: at 0.1 µM
Description: GSK_PKIS: MAPKAPK3 mean inhibition at 0.1 uM [Nanosyn]
Measured inhibition, listed per entry for reference.

Cc1nnc(-c2cccc(-c3ccc(C(=O)NCC4CC4)cc3)c2)o1; 5.72%
Cn1c(-c2nonc2N)nc2cnccc21; 3.29%
Cc1cc(O)cc(C)c1/C=C/c1cncc(C(=O)OC(C)(C)C)c1; 1.97%
NS(=O)(=O)c1ccc(N/N=C2\C(=O)Nc3ccc(C(=O)NCc4ccncc4)cc32)cc1; 4.05%

Which value of inhibition has been reported for "CCCNc1cccc(-n2ncc3c(N/N=C/c4ccncc4)ncnc32)c1" in the records?
-5.26%

Thanks! And "CNC(=O)c1cncc(/C=C/c2ccccc2C)c1" ?
3.43%

Now consider "Fc1ccc(Nc2nccc(-c3c(-c4ccc(C(F)(F)F)cc4)nn4ncccc34)n2)cc1F" .
1.82%

# repeat for "COc1ccccc1-c1cc(/C=C2\C(=O)Nc3ncc(Br)cc32)cc(Br)c1O"
5.31%

Try this compound next: "CS(=O)(=O)CCNCc1ccoc1-c1ccc2ncnc(Nc3ccc(OCc4ccccc4)cc3)c2c1"
0.57%

Please do the same for "COc1cc(Nc2ncc(-c3ccccc3)o2)cc(OC)c1" as well.
3.76%

====

Biological target: Ribosomal protein S6 kinase alpha-3 (Homo sapiens) (UniProt P51812)
Settings: at 0.1 µM
// reported inhibition for each item listed
Just so you know, I need the unit written after the number.

Worked set:
CN(c1ccc(NC(=O)NCCN2CCOCC2)cc1)c1ccnc(Nc2ccc(CS(C)(=O)=O)cc2)n1; 2.14%
COC(=O)Nc1nc2cc(Oc3ccc(NC(=O)Nc4ccccc4)cc3)ccc2[nH]1; 2.3%
CCS(=O)(=O)c1ccc(OC)c(Nc2ncc(-c3cccc(F)c3)o2)c1; 1.12%
COC(=O)Nc1nc2ccc(Oc3ccc(NC(=O)Nc4cc(C(F)(F)F)ccc4F)cc3)cc2s1; 0.8%
COc1cccc(Nc2nccc(-c3cnn4ncccc34)n2)c1; -0.39%

Quick one: inhibition for "CC1(C)CC(n2cnc(-c3ccc(F)cc3)c2-c2ccnc(N)n2)CC(C)(C)N1" ?
1.45%

Can you check "O=C1Nc2ccccc2/C1=C1\CCc2cc(O)ccc21" next?
4.82%

Try this molecule next: "O=C(Nc1n[nH]c2nnc(-c3cccnc3)cc12)C1CC1"
0.41%

Thanks! And CC1=C(C(=O)Nc2ccc3[nH]nc(C)c3c2)C(c2ccc(C(F)(F)F)cc2)CC(=O)N1 (stereo not given) ?
1.64%

Also check "NS(=O)(=O)c1ccc(N/N=C2\C(=O)Nc3ccc(C(=O)NCc4ccncc4)cc32)cc1"
2.2%

====

Tested on: Platelet-derived growth factor receptor alpha (Homo sapiens), P16234 [T674I]
Sequence (P16234 whole entry T674I): as the sequence (P16234 whole entry V561D) above, with D561V, T674I counted along it
Conditions: at 0.1 µM
assay readout: inhibition (%)
Please state the figure in %; there is no need to write the unit.

COc1ccc(Nc2ncc(-c3ccccc3)o2)cc1OC; 42.2
c1cnn2ncc(-c3ccnc(NCCCN4CCOCC4)n3)c2c1; 3.47
CCN1CCC(C(=O)Nc2n[nH]c3nnc(-c4cccc(F)c4F)cc23)CC1; 2.94
NC(=O)c1ccc2c(-c3ccnc(NCCCO)n3)c(-c3ccc(F)cc3)nn2c1; 6.06

Quick check: inhibition of "CNC(=O)c1ncccc1Nc1nc(Nc2cc3c(cc2OC)CCCN3C(=O)CN(C)C)nc2[nH]ccc12" ?
5.75
